The reported measurements were obtained from ChEMBL document CHEMBL1125579.

Listed here: compounds with reported log10(IC50) for Aldo-keto reductase family 1 member B1 (Rattus norvegicus).
Friendly reminder: values = log10 of IC50, unit µM.

## Input Name the recorded log10(IC50) of the compound listed here: O=C(O)CN(C(=O)c1ccc2ccccc2c1)c1ccccc1
## Output 1.28

## Input State its log10(IC50) for this compound: O=C(O)CN(C(=O)c1ccc(NC(=O)c2ccccc2)cc1)c1ccccc1
## Output -0.62

## Input Please report log10(IC50) for the following compound: CN(CC(=O)O)C(=O)c1ccc2ccccc2c1
## Output 1.28

## Input Specify reported log10(IC50) for the compound shown: CN(CC(=O)O)C(=O)c1ccc([N+](=O)[O-])cc1
## Output 1.41

## Input Dear colleague, please send me the reported log10(IC50) for Cc1ccc(C(=O)N(CC(=O)O)c2ccccc2)cc1 when you can.
## Output 0.57

## Input // Input: COc1ccc(C(=O)N(CC(=O)O)c2ccccc2)cc1 . Output its log10(IC50) only.
## Output 0.51

## Input Note down log10(IC50) recorded for O=C(O)CNC(=O)c1ccc2ccccc2c1
## Output 1.85

## Input Report log10(IC50), nothing else, for this compound: CN(CC(=O)O)C(=O)c1cccc2ccccc12
## Output 1.60

* * *

# target or test system: Aldo-keto reductase family 1 member B1 (Rattus norvegicus)
# protocol details: Inhibitory activity against aldose reductase in rat lens
Reported pIC50 is given for each of the following compounds.
Quick note: pIC50 values are minus log10 of concentrations in mol/L.

Please review the following examples before continuing.
{"smiles input": "O=C(O)CNC(=O)c1cccc2ccccc12", "property label": "pIC50", "val": 3.66}
{"smiles input": "COc1ccc(C(=O)N(C)CC(=O)O)cc1", "property label": "pIC50", "val": 5.17}
{"smiles input": "Cc1ccc(C(=O)N(C)CC(=O)O)cc1", "property label": "pIC50", "val": 4.89}

Shifting focus to the compound that follows.
## Input Return pIC50 for the following compound: CN(CC(=O)O)C(=O)c1ccc(F)cc1
## Output 5.06
